The measurements presented in this section are drawn from ChEMBL document CHEMBL3885881.

# ERYTHROCYTE COUNT values compiled below
Organism: Rattus norvegicus
Assay: DrugMatrix - Regimen: Daily Repeat
Assay type: toxicity, organism-based, Sprague-Dawley
Design: regimen Daily Repeat, gender Male, age 6-8 weeks
Conditions: in vivo, po, 0 mg/kg, 120 h, tissue Blood, route oral GAVAGE, dose level Control, time 5 day, vehicle .5 % CMC
Entry rule: numbers only, all in x10E6/uL.

Consider the reported ERYTHROCYTE COUNT for these compounds:
COc1ccc(C2C(=O)c3ccccc3C2=O)cc1 [ANISINDIONE]
6.72
NCCCC(O)(P(=O)(O)O)P(=O)(O)O [ALENDRONIC ACID]
6.72
COC1=C(OC)C(=O)C(CCCCCCCCCCO)=C(C)C1=O [IDEBENONE]
5.32
O=C1Nc2ccc(Cl)cc2C(c2ccccc2Cl)=NC1O (stereo not given) [LORAZEPAM]
5.52

Sure, the documented ERYTHROCYTE COUNT for CN/C(=N/CCSCc1nc[nH]c1C)NC#N [CIMETIDINE] is 5.32

====

Species: Rattus norvegicus
Test: DrugMatrix - Regimen: Daily Repeat
Type: toxicity, organism-based, Sprague-Dawley
Parameters: regimen Daily Repeat, gender Male, age 6-8 weeks
Details: in vivo, po, 10 mg/kg, 120 h, tissue Plasma, route oral GAVAGE, dose level Low, time 5 day, vehicle .5 % CMC
Metric: CHOLESTEROL

Observe how each entry below is paired with its result.
O=C1CN=C(c2ccccc2Cl)c2cc([N+](=O)[O-])ccc2N1
75.33 mg/dL
Fc1ccc(C(c2ccc(F)cc2)N2CCN(C/C=C/c3ccccc3)CC2)cc1
74.33 mg/dL
CNCCC(Oc1ccc(C(F)(F)F)cc1)c1ccccc1 (centres undefined)
67.67 mg/dL

Okay, now this compound:
Item: O=C1C(CC[S+]([O-])c2ccccc2)C(=O)N(c2ccccc2)N1c1ccccc1 (centres undefined) | CHOLESTEROL: 63.67 mg/dL

====

// reported PHOSPHORUS per item
Species on record: Rattus norvegicus
Assay: DrugMatrix - Regimen: Daily Repeat
Assay type: toxicity, organism-based, Sprague-Dawley
Parameters: regimen Daily Repeat, gender Male, age 6-8 weeks
Details: in vivo, po, 0 mg/kg, 120 h, tissue Plasma, route oral GAVAGE, dose level Control, time 5 day, vehicle .5 % CMC
Expressed in mg/dL, but write only the number.

Solved entries:
NC1CCN(c2nc3c(cc2F)c(=O)c(C(=O)O)cn3-c2ccc(F)cc2F)C1 (stereo not drawn) [TOSUFLOXACIN]
10.05
COc1cc2nc(N3CCN(C(=O)c4ccco4)CC3)nc(N)c2cc1OC [PRAZOSIN]
11.87
CC(C(=O)O)c1ccc2oc(-c3ccc(Cl)cc3)nc2c1 (stereo not drawn) [BENOXAPROFEN]
12.27

For O=C1C(CC[S+]([O-])c2ccccc2)C(=O)N(c2ccccc2)N1c1ccccc1 (stereo not drawn) [SULFINPYRAZONE] the molecule record lists PHOSPHORUS as 11.87

Value of measured PHOSPHORUS for the entry CN(C/C=C/C#CC(C)(C)C)Cc1cccc2ccccc12 [TERBINAFINE] : 10.05

Form: molecule = CCN(CC)CCOc1ccc(/C(=C(/Cl)c2ccccc2)c2ccccc2)cc1 [ENCLOMIPHENE] ; PHOSPHORUS = 11.48

====

Species: Rattus norvegicus
Experiment: DrugMatrix - Regimen: Daily Repeat
Type: toxicity, organism-based, Sprague-Dawley
Parameters: regimen Daily Repeat, gender Male, age 6-8 weeks
Settings: in vivo, po, 0 mg/kg, 72 h, tissue Blood, route oral GAVAGE, dose level Control, time 3 day, […]
# LEUKOCYTE COUNT listing for each entry below
Field format: number, assumed x10E3/uL, no unit text.

Clc1ccc(COC(Cn2ccnc2)c2ccc(Cl)cc2Cl)cc1 (centres undefined) [ECONAZOLE]
8.7
COc1cc(N)c(Cl)cc1C(=O)NC1CCN(CCCOc2ccc(F)cc2)CC1OC (centres undefined) [CISAPRIDE]
10.65
CC(C)(C)NC(=O)[C@H]1CC[C@H]2[C@@H]3CC[C@H]4NC(=O)C=C[C@]4(C)[C@H]3CC[C@]12C [FINASTERIDE]
10.33

Per the record, CO[C@H]1/C=C/O[C@@]2(C)Oc3c(C)c(O)c4c(O)c(c(/C=N/N5CCN(C6CCCC6)CC5)c(O)c4c3C2=O)NC(=O)/C(C)=C\C=C\[C@H](C)[C@H](O)[C@@H](C)[C@@H](O)[C@@H](C)[C@H](OC(C)=O)[C@@H]1C [RIFAPENTINE] has LEUKOCYTE COUNT of 12.8
